Header: pIC50 / F1F0-ATPase (Bos taurus) / multiple publications
pIC50: −log10 of the molar value.

Consider the worked cases shown below.
Form: Entry = O=C(/N=C(/NCC1CCCO1)Nc1cc(C(F)(F)F)[nH]n1)c1ccc(F)cc1 (stereo not drawn) | System = F1F0-ATPase (Bos taurus) | pIC50 = ____ > 5.00

Form: Entry = O=C(/N=C(/Nc1cc(C(F)(F)F)n[nH]1)NC1CCS(=O)(=O)C1)c1ccc(Cl)cc1 (stereo not drawn) | System = F1F0-ATPase (Bos taurus) | pIC50 = ____ > 5.00

Form: Entry = COc1ccc(-c2cc(N/C(=N\C(=O)c3cn(C)nc3C(F)(F)F)Nc3ccccc3C(C)(C)C)[nH]n2)cc1F | System = F1F0-ATPase (Bos taurus) | pIC50 = ____ > 5.30

Form: Entry = COc1cccc(CN/C(=N/C(=O)c2cccc(F)c2)Nc2cc(-c3ccc(F)cc3)[nH]n2)c1 | System = F1F0-ATPase (Bos taurus) | pIC50 = ____ > 5.00

Form: Entry = CC(C)CN/C(=N/C(=O)c1ccc(F)c(F)c1)Nc1n[nH]c2c(O)ccc(F)c12 | System = F1F0-ATPase (Bos taurus) | pIC50 = ____ > 5.30

Next:
Form: Entry = O=C(N=C(Nc1cc(-c2ccc(F)cc2)n[nH]1)NC1CCC1)c1ccc(Cl)cc1 | System = F1F0-ATPase (Bos taurus) | pIC50 = ____ > 5.00

Form: Entry = O=C(N=C(Nc1cc(F)cc(Cl)c1)Nc1cccc(NS(=O)(=O)CC(F)(F)F)n1)c1ccc(Cl)cc1 | System = F1F0-ATPase (Bos taurus) | pIC50 = ____ > 5.00

Form: Entry = O=C(/N=C(/Nc1cc(F)cc(Cl)c1)Nc1cc(-c2cccs2)[nH]n1)c1ccc(Cl)c(F)c1 | System = F1F0-ATPase (Bos taurus) | pIC50 = ____ > 5.00

Form: Entry = O=C(/N=C(/Nc1cccc(C(F)(F)F)c1)N[C@H]1CC[C@H](Nc2ncccn2)CC1)c1ccc(C(F)(F)F)cc1 | System = F1F0-ATPase (Bos taurus) | pIC50 = ____ > 5.00

###

Header: IC50 / F1F0-ATPase (Bos taurus) / multiple publications

Consider the worked cases shown below.
Form: Entry = CC(C)N/C(=N/C(=O)c1ccc(C(F)(F)F)cc1)Nc1cc(C(F)F)[nH]n1 | System = F1F0-ATPase (Bos taurus) | IC50 = ____ < 10 µM

Form: Entry = CCOC(=O)N[C@H]1CC[C@H](N/C(=N\C(=O)c2ccc(C(F)(F)F)cc2)NC(C)(C)C)CC1 | System = F1F0-ATPase (Bos taurus) | IC50 = ____ < 10 µM

Form: Entry = Cc1oncc1C(=O)/N=C(\Nc1cc(-c2cc(F)cc(F)c2)n[nH]1)NC(C)C | System = F1F0-ATPase (Bos taurus) | IC50 = ____ 5 to 16 µM

Form: Entry = CC(NC(=NC(=O)c1ccc(C(F)(F)F)cc1)Nc1cccc(O)n1)c1cccc(Cl)c1 (centres unmarked) | System = F1F0-ATPase (Bos taurus) | IC50 = ____ < 10 µM

Form: Entry = CC(C)(O)CN/C(=N/C(=O)c1cccc(Cl)c1)Nc1n[nH]c2cc(F)ccc12 | System = F1F0-ATPase (Bos taurus) | IC50 = ____ > 16 µM

Form: Entry = COCC(C)NC(=NC(=O)c1ccc(F)c(F)c1)Nc1cc(-c2cc(F)cc(Cl)c2)n[nH]1 (centres unmarked) | System = F1F0-ATPase (Bos taurus) | IC50 = ____ < 10 µM

Form: Entry = COC[C@H](C)N/C(=N/C(=O)c1ccc(Cl)cc1)Nc1n[nH]c2cc(C(F)(F)F)ccc12 | System = F1F0-ATPase (Bos taurus) | IC50 = ____ < 5 µM

Form: Entry = COC[C@H](C)NC(=NC(=O)c1cccc(Cl)c1)Nc1n[nH]c2cc(Cl)c(F)cc12 | System = F1F0-ATPase (Bos taurus) | IC50 = ____ < 5 µM

Please turn your attention to the following entry.
Form: Entry = O=C(N/C(=N\c1cccc(O)n1)Nc1cc(F)cc(Cl)c1)c1ccc(Cl)cc1 | System = F1F0-ATPase (Bos taurus) | IC50 = ____ < 10 µM

###

Header: pIC50 / UniProt:P13621 / multiple publications
pIC50: −log10 of the molar value.

Consider the worked cases shown below.
Returns the measured pIC50 for the input compound. Input: O=C(/N=C(/Nc1cc(F)cc(Cl)c1)Nc1cccc(O)n1)c1cccc(Cl)c1 > 5.00

Returns the measured pIC50 for the input compound. Input: O=C(/N=C(/Nc1cc(F)cc(Cl)c1)N[C@H]1CC[C@H](Nc2ncccn2)CC1)c1ccc(C(F)(F)F)cc1 > 5.00

Returns the measured pIC50 for the input compound. Input: CC(C)(C)C(=O)N[C@H]1CC[C@H](N/C(=N\C(=O)c2ccc(F)c(F)c2)Nc2cc(F)cc(Cl)c2)CC1 > 5.00

Returns the measured pIC50 for the input compound. Input: O=C(/N=C(\NCc1ccccc1C(F)(F)F)N[C@H]1CC[C@H](O)CC1)c1ccc(F)c(F)c1 < 5.00

Returns the measured pIC50 for the input compound. Input: O=C(/N=C(/NCc1nccs1)Nc1cc(C(F)(F)F)[nH]n1)c1ccc(F)cc1 > 5.00

Returns the measured pIC50 for the input compound. Input: O=C(/N=C(/NCc1ccc(F)cc1Cl)Nc1cc(-c2ccc(F)cc2)n[nH]1)c1cccc(F)c1 > 5.00

Please turn your attention to the following entry.
Returns the measured pIC50 for the input compound. Input: CCOCCCN/C(=N/C(=O)c1ccc(F)c(F)c1)Nc1n[nH]c2c(F)cccc12 4.80 to 5.30

###

Header: IC50 / UniProt P13621 / multiple publications

Returns the measured IC50 for the input compound. Input: CC(C)N/C(=N/C(=O)c1ccc(F)c(F)c1)Nc1n[nH]c2cc(C(F)(F)F)ccc12 < 5 µM

Next:
Returns the measured IC50 for the input compound. Input: CC1(N/C(=N\C(=O)c2ccc(Cl)cc2)Nc2cccc(O)n2)CCC1 < 10 µM

Returns the measured IC50 for the input compound. Input: CC(C)CN/C(=N/C(=O)c1cn(C)nc1C(F)(F)F)Nc1cc(-c2cc(O)ccc2F)n[nH]1 < 5 µM

Returns the measured IC50 for the input compound. Input: O=C(/N=C(/Nc1cc(F)cc(Cl)c1)Nc1cc(-c2ccccc2)[nH]n1)c1ccc(C(F)(F)F)cc1 < 10 µM

Returns the measured IC50 for the input compound. Input: O=C(/N=C(/Nc1cc(F)cc(Cl)c1)Nc1cccc(O)n1)c1ccc(F)c(F)c1 < 10 µM

Returns the measured IC50 for the input compound. Input: N#Cc1cccc(C(=O)/N=C(\Nc2cc(-c3ccc(F)cc3)n[nH]2)NC2CCC(F)(F)CC2)c1 < 10 µM

Returns the measured IC50 for the input compound. Input: O=C(/N=C(/Nc1cc(F)cc(Cl)c1)N[C@H]1CC[C@H](NC(=O)c2ccccc2)CC1)c1ccc(F)c(F)c1 < 10 µM

Returns the measured IC50 for the input compound. Input: CS(=O)(=O)N[C@H]1CC[C@H](N/C(=N\C(=O)c2ccc(F)c(F)c2)Nc2cccc(C(F)(F)F)c2)CC1 < 10 µM

Returns the measured IC50 for the input compound. Input: CCOCCCN/C(=N/C(=O)c1cnoc1C)Nc1cc(-c2ccc(Cl)cc2)n[nH]1 > 16 µM

Returns the measured IC50 for the input compound. Input: O=C(/N=C(\Nc1cc(C(F)(F)F)[nH]n1)NC1CCC(F)(F)CC1)c1ccc(C(F)(F)F)cc1 < 10 µM

Returns the measured IC50 for the input compound. Input: O=C(/N=C(/Nc1cc(F)cc(Cl)c1)N[C@H]1CC[C@H](O)CC1)c1ccc(Cl)cc1 > 10 µM

Returns the measured IC50 for the input compound. Input: O=C(/N=C(/NCC1CCCCO1)Nc1cc(-c2ccc(F)cc2)n[nH]1)c1ccc(F)cc1 (centres unmarked) > 10 µM

Returns the measured IC50 for the input compound. Input: CC(C)CN/C(=N/C(=O)c1cccc(C#N)c1)Nc1cc(-c2cc(F)cc(F)c2)n[nH]1 < 10 µM

Returns the measured IC50 for the input compound. Input: CCOCCN/C(=N/C(=O)c1ccc(F)c(F)c1)Nc1cc(-c2ccc(F)cc2)n[nH]1 < 10 µM
